Just for reference, paper PMC5235360 is where these values come from.

measured_parameter: Kd (nM)
Quick reminder: number only, in nM, skip the unit.

Look up bsLDH (Geobacillus stearothermophilus, UniProt P00344) data: Kd of NC(=O)C1=CN([C@@H]2O[C@H](COP(=O)(O)OP(=O)(O)OC[C@H]3O[C@@H](n4cnc5c(N)ncnc54)[C@H](O)[C@@H]3O)[C@@H](O)[C@H]2O)C=CC1 [NADH] , then report it. 1300
